Origin of values: patent US10669235B2

Molecular target: PDGFRβ (Homo sapiens (Human), UniProt P09619)
Sequence (P09619 33-1106): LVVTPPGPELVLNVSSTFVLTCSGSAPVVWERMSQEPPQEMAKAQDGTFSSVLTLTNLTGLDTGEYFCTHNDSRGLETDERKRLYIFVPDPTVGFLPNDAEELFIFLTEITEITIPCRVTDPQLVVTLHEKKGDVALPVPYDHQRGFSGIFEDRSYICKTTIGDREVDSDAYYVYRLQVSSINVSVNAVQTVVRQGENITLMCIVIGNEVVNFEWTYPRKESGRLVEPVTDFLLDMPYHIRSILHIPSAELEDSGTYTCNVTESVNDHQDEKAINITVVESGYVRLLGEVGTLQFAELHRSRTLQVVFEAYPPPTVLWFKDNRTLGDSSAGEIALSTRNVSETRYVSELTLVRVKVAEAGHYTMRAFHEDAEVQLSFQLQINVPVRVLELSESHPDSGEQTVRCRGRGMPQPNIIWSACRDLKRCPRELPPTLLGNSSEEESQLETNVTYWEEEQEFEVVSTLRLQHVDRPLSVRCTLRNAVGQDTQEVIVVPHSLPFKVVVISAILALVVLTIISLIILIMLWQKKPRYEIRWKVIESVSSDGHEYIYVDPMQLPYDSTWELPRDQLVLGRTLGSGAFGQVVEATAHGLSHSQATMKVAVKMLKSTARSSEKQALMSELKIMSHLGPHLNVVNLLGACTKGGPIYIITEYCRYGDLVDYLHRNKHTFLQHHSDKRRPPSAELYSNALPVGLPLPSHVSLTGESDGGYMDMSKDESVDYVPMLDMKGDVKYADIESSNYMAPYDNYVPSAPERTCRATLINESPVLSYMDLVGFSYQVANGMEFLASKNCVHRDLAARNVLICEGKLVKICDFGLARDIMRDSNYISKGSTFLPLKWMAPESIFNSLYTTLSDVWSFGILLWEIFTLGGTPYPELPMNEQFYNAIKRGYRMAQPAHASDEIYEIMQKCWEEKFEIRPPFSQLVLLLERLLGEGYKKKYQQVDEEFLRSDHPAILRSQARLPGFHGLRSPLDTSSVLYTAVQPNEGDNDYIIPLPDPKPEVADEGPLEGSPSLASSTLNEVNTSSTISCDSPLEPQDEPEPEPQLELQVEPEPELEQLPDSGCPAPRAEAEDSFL
Assay: PDGFRβ enzyme inhibition (ADP-Glo assay)
Format: biochemical
Structures can show the parent of a compound that is named as a salt.
testReadout: Ki (µM)
Answers are plain numbers, in µM.

compound="COC(=O)c1cc2c(cc1C)/C(=C(/Nc1ccc(C(=O)NCCN3CCC(F)CC3)cc1)c1ccccc1)C(=O)N2 [Example 28, formate]" testreadout=Ki unit=µM numericresult=0.02

Prompt: Any idea what its Ki is? The compound is COC(=O)c1cc2c(cc1C)/C(=C(/Nc1ccc(C(=O)NCCN(C)C)cc1)c1ccccc1)C(=O)N2 [Example 2, formate]
Completion: 0.0111

* * *

Assay: Pharmacokinetic measurements in rats (i.v., i.t., oral)
Assay type: in vivo
Conditions: rat, i.t. dose 0.1 (nintedanib 0.42), 6 h
testReadout: lung/plasma conc ratio at time 6 h

itemsmiles=COC(=O)c1cc2c(cc1C)/C(=C(/Nc1ccc(C(=O)NCCN3CCCN(C)CC3)cc1)c1ccccc1)C(=O)N2 result=>606

Dear colleague, could you please provide lung/plasma conc ratio at time 6 h for the compounds listed below?
1. COC(=O)c1cc2c(cc1C)/C(=C(/Nc1ccc(C(=O)NCCN3CCC(N(C)C)CC3)cc1)c1ccccc1)C(=O)N2
2. COC(=O)c1cc2c(cc1C)/C(=C(/Nc1ccc(C(=O)NCCN3CCNC(=O)C3)cc1)c1ccccc1)C(=O)N2
3. COC(=O)c1cc2c(cc1C)/C(=C(/Nc1ccc(C(=O)NCC(=O)N3CCN(CCO)CC3)cc1)c1ccccc1)C(=O)N2

Completion:
1. >4597
2. >14485
3. >35

* * *

Test: PAMPA permeability assay
Assay type: in vitro ADME
Conditions: pH 7, PAMPA, pH 7, 10 μM, 5 hr
Where a name gives a salt, the structure may show the parent alone.
Hi there, I'd appreciate the recorded Papp at 5 h, 10 µM for every entry that follows.
Answers are plain numbers, in ×10⁻⁶ cm/s.

Solved cases (3 shown):
molecule="COC(=O)c1cc2c(cc1C)/C(=C(/Nc1ccc(C(=O)N3CCC(O)(CN4CCCC4)CC3)cc1)c1ccccc1)C(=O)N2 [Example 37, formate]" testreadout="Papp at 5 h, 10 µM" numericresult=0.0542
molecule=COC(=O)c1cc2c(cc1C)/C(=C(/Nc1ccc(C(=O)N3CC[C@@H](CN(C)C)[C@H](O)C3)cc1)c1ccccc1)C(=O)N2 testreadout="Papp at 5 h, 10 µM" numericresult=0.0269
molecule=COC(=O)c1cc2c(cc1C)/C(=C(/Nc1ccc(C(=O)NC3CCN(CCO)CC3)cc1)c1ccccc1)C(=O)N2 testreadout="Papp at 5 h, 10 µM" numericresult=0.0439

Prompt: Any idea what its Papp at 5 h, 10 µM is? The molecule is COC(=O)c1cc2c(cc1C)/C(=C(/Nc1ccc(C(=O)N(CCO)CCN(C)C)cc1)c1ccccc1)C(=O)N2
Completion: 0.0217

* * *

Target: PDGFRβ (Homo sapiens (Human), UniProt P09619)
Test: PDGF-BB induced phosphorylation of PDGFRβ in fibroblasts (MRC5, HTRF)
Assay type: cell-based
Conditions: MRC5 cells, PDGFBB stimulation; read-out: PDGFBB-induced PDGFRβ phosphorylation in MRC5 cells (IC50)
pIC50: −log10 of the molar value. Structures can show the parent of a compound that is named as a salt.
Note to self: values exactly at 8 are fulfilled. So pIC50 at or above 8 is fulfilled, below is not fulfilled.

Previously resolved entries follow.
molecule=COC(=O)c1cc2c(cc1C)/C(=C(/Nc1ccc(C(=O)NCCN3CCC(O)CC3)cc1)c1ccccc1)C(=O)N2 assignedcategory=fulfilled
molecule=COCCN(C)CCNC(=O)c1ccc(N/C(=C2\C(=O)Nc3cc(C(=O)OC)c(C)cc32)c2ccccc2)cc1 assignedcategory="not fulfilled"
molecule="COC(=O)c1cc2c(cc1C)/C(=C(/Nc1ccc(C(=O)NCCN(C)C)cc1)c1ccccc1)C(=O)N2 [Example 2, formate]" assignedcategory="not fulfilled"
molecule="COC(=O)c1cc2c(cc1C)/C(=C(/Nc1ccc(C(=O)NC3CCN(CCO)CC3)cc1)c1ccccc1)C(=O)N2 [Example 13]" assignedcategory=fulfilled
molecule=COC(=O)c1cc2c(cc1C)/C(=C(/Nc1ccc(C(=O)NCCCN3CCOCC3)cc1)c1ccccc1)C(=O)N2 assignedcategory=fulfilled

Prompt: Could you verify whether the entry COC(=O)c1cc2c(cc1C)/C(=C(/Nc1ccc(C(=O)NCCN3CCS(=O)(=O)CC3)cc1)c1ccccc1)C(=O)N2 shows pIC50 of no less than 8?
Completion: fulfilled
